Cited source for all entries: ChEMBL document CHEMBL1156825

Entries and their measured Activity follow.
Target: Peroxisome proliferator-activated receptor gamma (Homo sapiens) (UniProt P37231)
Sequence (P37231 whole entry, the tested form may be a part): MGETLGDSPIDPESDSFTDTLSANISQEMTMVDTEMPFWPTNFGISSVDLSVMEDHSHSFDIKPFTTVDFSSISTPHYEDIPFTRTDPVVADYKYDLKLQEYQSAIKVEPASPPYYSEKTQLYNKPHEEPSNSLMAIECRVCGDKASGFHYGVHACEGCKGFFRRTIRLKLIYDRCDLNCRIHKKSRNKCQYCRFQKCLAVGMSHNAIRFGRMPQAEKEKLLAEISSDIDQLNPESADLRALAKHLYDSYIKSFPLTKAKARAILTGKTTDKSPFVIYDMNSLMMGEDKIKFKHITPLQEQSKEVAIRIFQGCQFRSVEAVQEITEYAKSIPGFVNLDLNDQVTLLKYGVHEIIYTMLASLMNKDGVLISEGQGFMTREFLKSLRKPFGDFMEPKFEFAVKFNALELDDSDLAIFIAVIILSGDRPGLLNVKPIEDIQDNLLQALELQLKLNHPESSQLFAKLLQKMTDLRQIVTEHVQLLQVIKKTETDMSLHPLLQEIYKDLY
Assay: Agonist activity at human recombinant PPARgamma expressed in CV1 cells coexpressing GAL4 assessed as receptor transactivation at 10 uM by luciferase reporter gene assay relative to full agonist
Format: functional, cell-based
Details: CV-1
Readout label: Activity

>  <Compound smiles>
CCCc1nc2c(C)cccc2n1Cc1ccc(/C=C/C(=O)OCC)cc1

>  <Reading>
4%

$$$$
>  <Compound smiles>
CCCc1nc2c(C)cccc2n1Cc1ccc(CCC(=O)OC)cc1

>  <Reading>
2%

$$$$

----------
Biological target: Peroxisome proliferator-activated receptor gamma (Homo sapiens)
Test: Agonist activity at human recombinant PPARgamma expressed in CV1 cells coexpressing GAL4 assessed as receptor transactivation at 10 uM by luciferase reporter gene assay relative to full agonist
Type: functional, cell-based
Details: CV-1
Activity calls are given as the source filed them. The calls are words filed in the database; no cut-off is given here.

>  <Compound>
CCCc1nc2c(C)cccc2n1CCOc1ccc(CC(C)(Oc2ccccc2)C(=O)OCC)cc1 (centres undefined)

>  <Activity>
69%

$$$$
>  <Compound>
CCCc1nc2c(C)cccc2n1CCOc1ccc(CC(C)(C)C(=O)OCC)cc1

>  <Activity>
10%

$$$$
>  <Compound>
CCCc1nc2c(C)cccc2n1Cc1ccc(OCc2nnn[nH]2)cc1

>  <Activity>
inactive

$$$$
>  <Compound>
CCCc1nc2c(C)cc(-c3nc4ccccc4n3C)cc2n1CCOc1ccc(CC(C)(Oc2ccccc2)C(=O)OCC)cc1 (centres undefined)

>  <Activity>
29%

$$$$
>  <Compound>
CCCc1nc2c(C)cccc2n1Cc1ccc(OC(C)(C)C(=O)OCC)cc1

>  <Activity>
21%

$$$$
>  <Compound>
CCCc1nc2c(C)cc(-c3nc4ccccc4n3C)cc2n1CCOc1ccc(CCc2nnn[nH]2)cc1

>  <Activity>
inactive

$$$$
>  <Compound>
CCCc1nc2c(C)cc(-c3nc4ccccc4n3C)cc2n1CCOc1ccc(CC(C)(Oc2ccccc2)C(=O)O)cc1 (centres undefined)

>  <Activity>
12%

$$$$
>  <Compound>
CCCc1nc2c(C)cc(-c3nc4ccccc4n3C)cc2n1Cc1ccc(-c2ccccc2C(=O)O)cc1

>  <Activity>
21.9%

$$$$
>  <Compound>
CCCc1nc2c(C)cccc2n1Cc1ccc(CCc2nnn[nH]2)cc1

>  <Activity>
inactive

$$$$
